Reference for the values: patent US20190322750A1

Target: T1, human PD-L1 over-expressed on HEK293E cells (human, UniProt Q9NZQ7 19-290)
T1 construct: whole, on cells; also called human PD-L1 (NM_014143.2)
T1 sequence (Q9NZQ7 19-290): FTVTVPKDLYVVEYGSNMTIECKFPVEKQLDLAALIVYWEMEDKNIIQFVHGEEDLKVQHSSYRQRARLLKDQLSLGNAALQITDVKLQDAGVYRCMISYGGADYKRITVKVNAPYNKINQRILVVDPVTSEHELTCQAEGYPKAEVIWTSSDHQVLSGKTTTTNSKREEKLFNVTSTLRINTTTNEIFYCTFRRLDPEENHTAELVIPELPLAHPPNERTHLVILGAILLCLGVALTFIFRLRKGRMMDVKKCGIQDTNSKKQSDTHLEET
Assay: flow cytometry on HEK293E/PD-L1 cells, FITC anti-human IgG, serial dilutions; fit table

BINDER: PDL1-16E12 (LS/4A7) (antibody, V domains shown, also called PD-L1-16E12-4A7) VH: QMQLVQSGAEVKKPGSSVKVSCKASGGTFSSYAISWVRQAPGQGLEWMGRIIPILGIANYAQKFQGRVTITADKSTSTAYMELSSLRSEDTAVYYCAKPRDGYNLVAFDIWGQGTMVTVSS VL: QLVLTQPPSVSGAPGQRVTISCTGSSSNIGAGYDVHWYQSLPGTVPKLLISGNSNRPPGVPDRFSGSKSGTSASLAITSLQSEDEADYYCHSYDGSLSEGVFGTGTKVTVL
Bmax: 4260
--
BINDER: PDL1-16E12 (LS/4F5) (antibody, V domains shown, also called 16E12(4F5); 16E12-4F5) VH: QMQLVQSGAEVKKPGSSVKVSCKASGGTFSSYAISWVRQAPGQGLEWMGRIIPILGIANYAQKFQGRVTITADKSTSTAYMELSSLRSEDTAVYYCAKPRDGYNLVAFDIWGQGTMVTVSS VL: QLVLTQPPSVSGAPGQRVTISCTGSSSNIGAGYDVHWYQQLPGAAPKLLIYGDINRPSGVPDRFSGSKSGISASLAITGLQAEDEADYYCQSYDSSLSGGVFGGGTKLTVL
Bmax: 4100
--
BINDER: PD-L1-16E12 (WT/kappa) (antibody, V domains shown, also called PD-L1-16E12-Kappa) VH: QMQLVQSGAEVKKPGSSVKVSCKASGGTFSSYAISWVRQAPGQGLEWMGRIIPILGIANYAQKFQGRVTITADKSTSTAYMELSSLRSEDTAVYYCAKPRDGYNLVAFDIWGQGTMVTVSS VL: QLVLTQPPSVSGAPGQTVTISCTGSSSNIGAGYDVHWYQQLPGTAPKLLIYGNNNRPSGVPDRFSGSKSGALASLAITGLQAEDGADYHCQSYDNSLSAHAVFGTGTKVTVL
Bmax: 4140
--
BINDER: PDL1-16E12 (LS/4H5) (antibody, V domains shown, also called PD-L1-16E12-4H5) VH: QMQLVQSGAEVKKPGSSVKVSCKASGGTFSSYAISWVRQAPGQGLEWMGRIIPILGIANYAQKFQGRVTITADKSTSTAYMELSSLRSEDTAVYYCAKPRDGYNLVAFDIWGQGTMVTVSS VL: QLVLTQPPSVSGAPGQRVTISCTGSSSNIGAGYDVHWYQQLPGTAPKLLIYGNSNRPSGVPDRFSGSKSGTSASLAITGLQAEDEADYYCQSYDSSLSGGVFGGGTKLTVL
Bmax: 4020
